- experimentalTarget: T1, human IL6R (human, UniProt P08887 20-358, limits assumed)
- T1 construct: Antigen of the Biacore experiments
- T1 sequence (looked up): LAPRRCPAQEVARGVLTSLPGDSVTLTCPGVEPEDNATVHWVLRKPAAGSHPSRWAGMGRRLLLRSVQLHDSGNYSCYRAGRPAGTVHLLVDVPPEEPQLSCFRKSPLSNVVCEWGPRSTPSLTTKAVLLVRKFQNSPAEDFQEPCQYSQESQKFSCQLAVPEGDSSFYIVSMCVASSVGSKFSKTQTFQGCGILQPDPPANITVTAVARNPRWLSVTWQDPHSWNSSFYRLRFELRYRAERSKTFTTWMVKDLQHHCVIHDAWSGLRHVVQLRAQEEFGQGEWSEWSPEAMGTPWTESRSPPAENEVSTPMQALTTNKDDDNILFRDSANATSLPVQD
- testMethodNotes: SPR (Biacore), periplasmic extract
readout: koff

1. IL6R65PMP11E2 (VHH) VHH: EVQLVESGGGLVQPGGSLRLSCAASGTTFKVNIMAWYRQAPGKGRELVAAIITGGSTSYADSVKGRFTISRDNAKNTLYLQMNSLRPEDTAVYYCAFVTTNSDYDLGRDYWGQGTLVTVSS = 0.00068 s⁻¹
2. IL6R65PMP11F12 (VHH) VHH: EVQLVESGGGLVQPGGSLRLSCAASGTTFRVNVMAWYRQAPGKGRELVAAIISGGSTTYADSVKGRFTISRDNAKNTLYLQMNSLRPEDTAVYYCAFVTTNSDYDLGRDYWGQGTLVTVSS = 0.00067 s⁻¹
3. IL6R65PMP13H4 (VHH) VHH: EVQLVESGGGLVQPGGSLRLSCAASGSAFKVNVMAWYRQAPGKGRELVAGVITDGSTNYADSVKGRFTISRDNAKNTLYLQMNSLRPEDTAVYYCAFVTTNSDYDLGRDYWGQGTLVTVSS = 0.00052 s⁻¹
4. IL6R65PMP11B4 (VHH) VHH: EVQLVESGGGLVQPGGSLRLSCAASGSIFKINVMAWYRQAPGKGRELVAAIINGGTTSYADSVKGRFTISRDNAKNTLYLQMNSLRPEDTAVYYCAFVTTNSDYDLGRDYWGQGTLVTVSS = 0.00028 s⁻¹
5. IL6R65PMP16H6 (VHH) VHH: EVQLVESGGGLVQPGGSLRLSCAASGSVFRINAMAWYRQAPGKGRELVAGFVTGGSSNYADSVKGRFTISRDNAKNTLYLQMNSLRPEDTAVYYCAFVTTNSDYDLGRDYWGQGTLVTVSS = 0.00032 s⁻¹
6. IL6R65PMP11D3 (VHH) VHH: EVQLVESGGGLVQPGGSLRLSCAASGSIFKLNVMAWYRQAPGKGRELVAGVITGGNTSYADSVKGRFTISRDNAKNTLYLQMNSLRPEDTAVYYCAFVTTNSDYDLGRDYWGQGTLVTVSS = 0.00031 s⁻¹
7. IL6R65PMP13F10 (VHH) VHH: EVQLVESGGGLVQPGGSLRLSCAASGSVFKINAMGWYRQAPGKGRELVAGLISAGSTNYADSVKGRFTISRDNAKNTLYLQMNSLRPEDTAVYYCAFVTTNSDYDLGRDYWGQGTLVTVSS = 0.0011 s⁻¹
8. IL6R65PMP13D2 (VHH) VHH: EVQLVESGGGLVQPGGSLRLSCAASGTTFKVNVMAWYRQAPGKGRELVAAIINDGSTTYADSVKGRFTISRDNAKNTLYLQMNSLRPEDTAVYYCAFVTTNSDYDLGRDYWGQGTLVTVSS = 0.0011 s⁻¹
9. IL6R65PMP13A4 (VHH) VHH: EVQLVESGGGLVQPGGSLRLSCAASGTTFRLNVMAWYRQAPGKGRELVAAIITSGTTTYADSVKGRFTISRDNAKNTLYLQMNSLRPEDTAVYYCAFVTTNSDYDLGRDYWGQGTLVTVSS = 0.00072 s⁻¹
10. IL6R65PMP11D6 (VHH) VHH: EVQLVESGGGLVQPGGSLRLSCAASGTTFKINVMAWYRQAPGKGRELVAAIISGGSTPYADSVKGRFTISRDNAKNTLYLQMNSLRPEDTAVYYCAFVTTNSDYDLGRDYWGQGTLVTVSS = 0.00068 s⁻¹
